Test system: MS2 coat protein
TEST: apparent KD of MS2 coat protein; designed switch direction (-1 OFF switch, 1 ON switch): -1; higher = weaker reporter binding
RUN CONDITIONS: input ligand: none
# reported apparent KD of MS2 coat protein; entries follow
OBSERVED PROPERTY: apparent KD of MS2 coat protein

| RESIDUE SEQUENCE | TARGET OR TEST SYSTEM | OBSERVED PROPERTY | RESULT |
| --- | --- | --- | --- |
| AUGUGCACGCUGCGGUCCUACAUGAGGAUCACCCAUGUGGUCUGGUGGCGUGGGUCGCCGGACUUGGCUCGUCUUGG [salish99_S_TOV1_R5_031] (Eterna round: R97, puzzle: Sensor, turn-off variant 1) | MS2 coat protein | apparent KD of MS2 coat protein | 0.0159 µM |
| CUUUUGUGAGGAUAUCAGUAGUAAAUAAAUAAUAUUACUACUGAGAAGGCACAUGAGGAUCACCCAUGUUCCUC [salish99_ex3_r3_083] (Eterna round: R96, puzzle: Exclusion 4) | MS2 coat protein | apparent KD of MS2 coat protein | 0.0453 µM |
| AAAAACAAGCCCAUGCUCGUCUUAAGAUCGAAAGAUCAAACAUGAGGAUCACCCAUGUGCGAGCAUGGGUGAUCCUC [Sensor v2, turn off variant 2 (JL Turnoff v2 4 - MOD3)] (Eterna round: R96, puzzle: Sensor v2, turn-off variant 2) | MS2 coat protein | apparent KD of MS2 coat protein | 0.0166 µM |
| UAGGCACCUGCAGGAUAUUAGAGGCGCUUUCUGUAAGAAGGGCAGGUUCACAUGAGGAUCACCCAUGUAAAGAACAGCAUGGCA [Eternabot solution 24] (Eterna round: R96, puzzle: Exclusion NG 1) | MS2 coat protein | apparent KD of MS2 coat protein | 0.0289 µM |
| CCUCCACAGGAGGAUAUCAUCAAACUAUUGUGAUGAGAAGGCCUGACAUGAGGAUCACCCAUGUUAACGUGAUG [Mod of Brourd 8 - Jieux - Exclusion 6] (Eterna round: R97, puzzle: Exclusion 6) | MS2 coat protein | apparent KD of MS2 coat protein | 0.0581 µM |
| CCCUCAAGCGAGGAUAUAAAUGCGCAUUCGCGGUUAGAAGGCGCUACAUGAGGAUCACCCAUGUAAUUGUAUGG [jl-ex6-4.53 ViennaUCT mod] (Eterna round: R97, puzzle: Exclusion 6) | MS2 coat protein | apparent KD of MS2 coat protein | 0.0734 µM |

###

Tested on: MS2 coat protein
TEST: apparent KD of MS2 coat protein; higher = weaker reporter binding
RUN CONDITIONS: Eterna round: R107; input ligand: theophylline 20 uM
OBSERVED PROPERTY: apparent KD of MS2 coat protein (nM)

| RESIDUE SEQUENCE | UNITS SYMBOL | QUANTITATIVE RESULT |
| --- | --- | --- |
| AGCCCGUGAGCGGCCGCCACUGGAGGCUUUGCGCGACAUGAGGAUCACCCAUGUGUGCCCGGCGUUAGGACCGGGUUCACGUGGU [#1 Same State - Tryptophan B Attempt #19 (HarryS)] | nM | 226 |
| UGUAAUGGGAUCAACCCAUGAGAGUCUGAAGGAGCGAUCGUAAGAUCAGGUAGGUCGCAGGAGACAUGAGGAUCACCCAUGUAUA [Arg A Ex t2] | nM | 56.6 |
| GUAUCUAUGUGAAAUAGAUAUAUAACUGAAGGAGCGUCAUUAAGGACAGGUAGGUCGCAGAGCACCUGAGGAUCACCCAGGUAGG [Arg A SS s1] | nM | 27 |
| UUAUAAGUACCGGUCCUCAGAUCCUCAUGACGAGGACCGGUACGGCCGCCACUCGAAACAUGAGGAUCACCCAUGUAAUAACAUC [Brourdmod21] | nM | 27.5 |
| UUAUAAGCACCUGAUACCAGUAUGAACCCGUACAUGAGGAUCACCCAUGUUAAUUUCUAUUACCCUUGGCAGCAGCCUUUUUCCU [theeternabot_sameState_MS2_Theo_B_2] | nM | 28.8 |
| AGGACGGUCGGAAGGAGCGGUACAUGAGGAUCACCCAUGUACUCCUGGGCAUCCGUAGUGUGCCAGGUAGGUCGCCGAUUGCGGG [XArg-B8] | nM | 19.8 |
| UCGUUUUAGUCGGCCGCCACUGUAUGCAUGUUUAACAUGAGGAUCACCCAUGUCCCGUUCUAUUUCAGGACCGGGACGUAAUCGA [JR_SSTryptoB_Sub008] | nM | 382 |
| ACGUCACGUUUACUCGUGGUUUCGAUCGAUACCAGUAGCGAGAGUUACCCUUGGCAGCGACAUGAGGAUCACCCAUGUGCGAAGA [XTheo A #26] | nM | 14 |
| GCGGUGGUCGGAAGGAGCGACAUGAGGAUCACCCAUGUCUCCCGUUAUGGGAGUUCCUUAGGUCAGGUAGGUCGCCGACUGCCGC [#1 Exclusion - Arginine B Attempt #21 (Inspired by Omei)] | nM | 234 |
| ACAUUGCGCUCGGCCGCCACUGGCUAUAGAUUUAUAGCAUUAAUGAACAUGAGGAUCACCCAUGUCAGGACCGGGAGCGAACCAU [SSTryp B #8] | nM | 17.2 |
| UGUAACAUGAGGAUCACCCAUGUGCACGAUACCAGCUUAUUGAUAGGCCCUUGGCAGCGUAUGCGGAAGCUGUAUAAUAUAUAUC [#27 SameState-TheophyllineA] | nM | 18.6 |

###

Tested on: MS2 coat protein
TEST: apparent KD of MS2 coat protein; designed switch direction (-1 OFF switch, 1 ON switch): -1; higher = weaker reporter binding
RUN CONDITIONS: Eterna round: R95; input ligand: none
OBSERVED PROPERTY: apparent KD of MS2 coat protein (nM)

| RESIDUE SEQUENCE | TARGET OR TEST SYSTEM | QUANTITATIVE RESULT |
| --- | --- | --- |
| GCUUUUCUUUUCCUUUCUUACAUGAGGAUCACCCAUGUUUCUUGUCGUCCUCGCGUUGCUCGUCUGUCUGUCUGUUG [salish99_TOv1_r3_078] (puzzle: Sensor v3, turn-off variant 1) | MS2 coat protein | 95.9 |
| UACUAAAAGGAGGAUAUCGUAUCGGAAACGAUACGAGAAGGCUUAACAUGAGGAUCACCCAUGUUCUUCAAUAA [Mat - Exclusion 6 - Eli Mod - D88] (puzzle: Exclusion 6) | MS2 coat protein | 16.4 |
| GAGAAAUUAUAGGAUAUCGUAAGGAUAAUUUAACGAGAAGGAUGAACAUGAGGAUCACCCAUGUGGUAUCAUGG [JL-ex6-3.12] (puzzle: Exclusion 6) | MS2 coat protein | 465 |

###

# reported apparent KD of K4 kissing-loop reporter; entries follow
Test system: K4 kissing-loop RNA reporter;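 further: bound reporter read as fluorescence of individual clusters on recovered sequencing chips by microscopy, with normalized cluster intensities fitted with a binding model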
TEST: apparent KD of K4 kissing-loop reporter; higher = weaker reporter binding
RUN CONDITIONS: Eterna round: R107; input ligand: FMN 200 uM

| RESIDUE SEQUENCE | apparent KD of K4 kissing-loop reporter (nM) |
| --- | --- |
| AGAGUUAAUUAGUCUUUUUUAACAUUAAGUCAGGAUAUCGUAUAUUCGAGAAGGGACACAUGCUAGUGAUGUUAGCUAUUUCUCA [JR_ExcFMNA_Sub018] | 50.2 |
| CAAACUCUGACGGCCGCCACUAAUCGUGUAACAGUGAUGUUGUUACAUCAAAGAUGGGUUGCGUGUAGGACCGGGUCGACGCAAA [theeternabot_exclusion_KL_Trp_B_48] | 131 |
| UAAUAUAAUCUGUCGUUUACAAUAUUUAGUCAGGAUAUCGUAUAUUCGAGAAGGGACACUAUCUAGUGAUGUUAGAUAUUUCUUU [JR_ExcFMNA_Sub014] | 47.9 |
| AGAUGUCUCUGGGAUACCAGUCGGAGUCUCAGGGCUCGGAGUGAUGUUCUGGGAUGUUUCGGCCCUUGGCAGCCCUGGGACUCCC [#2 Exclusion - Theophylline B Attempt #27 (HarryS)] | 724 |
| UUCAGUGAUGAUGAACACUGUUGUAUAAACUAGGAUAUGCUGAUAAGCAGAAGGAGUGAUGUUCCGUUCAUCAUCAGAAUUAAAU [KL-XFMN-A4] | 619 |
| AAUACGUUCACGGCCGCCACUGAAUAAUUGGUAAGUAGUGAUGUUACUUUACAUAUCUUAUUUAACAGGACCGGGUGAUCGUUUA [JR_Nu_ExcTryptoB_Sub028] | 130 |
| GCAGUGAUGUUGCGCAGGUACAGUGGAGUGCGAGGACCGGUACGGCCGCCACUCGUACAGAACUAGCUAAUGUAUGGAUAGGUGA [#11 K4 Tryptophan A Same State] | 354 |
| UUUGGUUUCUCGGCCGCCACUCGUUGGUUAUGGGCUUCAGGGAUAUAGUGAUGUUAUGUAUAGAAGAGGACCGGGAGAAGGAAGG [ExTryptoB.Dq] | 195 |
| GUGCAGUGAUGUUGCACGAGGAAAGACGAUACCAGCCGUAAAUAAGGCCCUUGGCAGCGUAGGCUAGCAUAAGGUAUGCUAGUCC [Atesermace] | 117 |
| GGCCGGUUGAAAGGCCGGCCAGAAACCGAAGGAGCGCGAAGAAACGCAGGUAGGUCGCGGAAAACAUGACCAGUGAUGUUGGUCG | 152 |
| CGCAGUGAUGUUGCGAGUAGAUACAGGGAAGGAGCGCCGUAGUAGGCAGGUAGGUCGCCCACGCAGUGAUGUUGCGUCAUAGGGU [Exclusion Arginine A GF 5] | 104 |
| GACGGGCAGUGAUGUUGCCGGUCUCUUGGACGAGGACCGGUACGGCCGCCACUCGAUCUGAUGCGAGAAUUGUAUCUUUUAAUAA [Tegesosoat] | 250 |

Data origin, for the record: the supplement of paper PMC9170038
